Cited source for all entries: patent US20110015241A1

Target: human factor Xa (Homo sapiens, UniProt P00742)
Sequence (P00742 235-488 limits assumed): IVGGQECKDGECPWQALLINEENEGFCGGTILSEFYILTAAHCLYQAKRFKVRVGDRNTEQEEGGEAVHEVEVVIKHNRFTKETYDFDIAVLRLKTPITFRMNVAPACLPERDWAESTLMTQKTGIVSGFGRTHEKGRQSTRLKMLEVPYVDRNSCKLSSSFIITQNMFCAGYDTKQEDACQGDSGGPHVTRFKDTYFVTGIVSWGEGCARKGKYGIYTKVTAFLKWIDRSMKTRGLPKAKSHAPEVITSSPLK
Sequence (P00742 41-179 partner limits assumed): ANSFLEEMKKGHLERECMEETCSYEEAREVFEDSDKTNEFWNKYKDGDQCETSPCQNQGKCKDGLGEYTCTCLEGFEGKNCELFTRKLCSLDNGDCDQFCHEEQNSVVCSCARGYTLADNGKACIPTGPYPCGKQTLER
Structures can show the parent of a compound that is named as a salt.
Metric name: pIC50
For clarity, pIC50 is expressed as the negative log10 of concentration in mol/L.

Entry under review: N=C1OCCN1c1ccc(-n2cc(CNC(=O)c3ccc(Cl)s3)c(-c3ccccc3)n2)cc1 [Example 2, hydrochloride] . Reported pIC50?
8.85
